system: human CYP1A2 (Homo sapiens, UniProt P05177)
Sequence (P05177 1-516): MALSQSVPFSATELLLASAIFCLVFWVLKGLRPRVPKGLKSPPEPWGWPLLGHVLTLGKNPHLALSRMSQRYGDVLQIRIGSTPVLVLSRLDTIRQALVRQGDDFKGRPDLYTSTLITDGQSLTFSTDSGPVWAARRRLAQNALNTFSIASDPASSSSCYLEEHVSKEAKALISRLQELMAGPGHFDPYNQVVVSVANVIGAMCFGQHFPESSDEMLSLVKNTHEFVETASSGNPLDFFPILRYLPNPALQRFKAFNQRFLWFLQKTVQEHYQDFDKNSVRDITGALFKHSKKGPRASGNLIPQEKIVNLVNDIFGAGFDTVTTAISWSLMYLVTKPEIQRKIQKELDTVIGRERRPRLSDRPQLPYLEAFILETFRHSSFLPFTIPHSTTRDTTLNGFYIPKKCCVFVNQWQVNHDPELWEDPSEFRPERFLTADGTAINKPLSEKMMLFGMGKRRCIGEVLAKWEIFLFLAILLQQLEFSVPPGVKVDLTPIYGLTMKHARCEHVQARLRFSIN
test_name: biochemical
condition_summary: CYP1A2 IC50
Counter-ions that a name gives are not always drawn.
The following compounds are listed with their measured IC50 values.
Output spec: scalar in µM, unitless text.

>  <compound>
CCCCCCCCCCCCN [Dodecylamine hydrochloride]

>  <uom>
µM

>  <measured_number>
2.55

$$$$

stdin: Using human CYP1A2 (Homo sapiens, UniProt P05177) as the test system, report measured IC50 of CCOP(=S)(Oc1cnc(C(C)(C)C)nc1)OC(C)C (stereo not shown) [Tebupirimfos] .
stdout: 24

stdin: Using human CYP1A2 (Homo sapiens, UniProt P05177) as the test system, report measured IC50 of CCN(CC)CCOC(=O)C(c1ccccc1)C1CCCCC1 (stereo not shown) [Drofenine hydrochloride] .
stdout: 5.85

stdin: Using human CYP1A2 (Homo sapiens, UniProt P05177) as the test system, report measured IC50 of `c1ccc2sc(SN(C3CCCCC3)C3CCCCC3)nc2c1` .
stdout: 32.9

stdin: Using human CYP1A2 (Homo sapiens, UniProt P05177) as the test system, report measured IC50 of Cc1cc(-c2ccc(N)c(C)c2)ccc1N [3,3'-Dimethylbenzidine] .
stdout: 0.47

stdin: Using human CYP1A2 (Homo sapiens, UniProt P05177) as the test system, report measured IC50 of CO[C@]12C[C@@H](COC(=O)c3cncc(Br)c3)CN(C)[C@@H]1Cc1cn(C)c3cccc2c13 [Nicergoline] .
stdout: 22

stdin: Using human CYP1A2 (Homo sapiens, UniProt P05177) as the test system, report measured IC50 of CCCN1C[C@H](CSC)C[C@@H]2c3cccc4[nH]cc(c34)C[C@H]21 [Pergolide methanesulfonate] .
stdout: 6.54

stdin: Using human CYP1A2 (Homo sapiens, UniProt P05177) as the test system, report measured IC50 of Cc1cc(O)c2ccccc2c1O [Menadiol] .
stdout: 0.8

stdin: Using human CYP1A2 (Homo sapiens, UniProt P05177) as the test system, report measured IC50 of c1ccc2cc3ccccc3cc2c1 [Anthracene] .
stdout: 0.5

stdin: Using human CYP1A2 (Homo sapiens, UniProt P05177) as the test system, report measured IC50 of Nc1ccc2c3c(cccc13)-c1ccccc1-2 [3-Aminofluoranthene] .
stdout: 0.13
